// reported Minimum inhibitory concentration, Escherichia coli ATCC25922 per item
- System: Escherichia coli ATCC25922
- assay.text: MIC by serial microdilution in liquid medium
- Format: cell-based
- condition.summary: 24 h, 37 °C
experimental.readout: Minimum inhibitory concentration, Escherichia coli ATCC25922

1) Cc1nn(CNc2ccccc2Cl)c(C)c1[N+](=O)[O-] [4f] | 460 ± 0.02 µg/mL
2) Cc1nn(CNc2ccc(Cl)cc2)c(C)c1[N+](=O)[O-] [4b] | 460 ± 0.05 µg/mL
3) Cc1nn(CN(Cn2nc(C)c([N+](=O)[O-])c2C)c2ccc(F)cc2)c(C)c1[N+](=O)[O-] [5a] | 460 ± 0.06 µg/mL
4) Cc1nn(CNc2cccc(Cl)c2)c(C)c1[N+](=O)[O-] [4e] | 460 ± 0.52 µg/mL
5) Cc1nn(CN(Cn2nc(C)c([N+](=O)[O-])c2C)c2ccc(Br)cc2)c(C)c1[N+](=O)[O-] [5c] | 3750 ± 0.54 µg/mL
6) Cc1nn(CN(Cn2nc(C)c([N+](=O)[O-])c2C)c2ccc(Cl)cc2)c(C)c1[N+](=O)[O-] [5b] | 460 ± 0.27 µg/mL
